test: yeast display, Sf9 membrane polyspecificity reagent, FACS + sequencing; frameworks hold sequencing errors
readout_name: polyreactivity (PSR sort gate)

Recorded polyreactivity (PSR sort gate), per entry:
Look up and state reported polyreactivity (PSR sort gate) for QVQLVESGGGLVQAGGSLRLSCAASGRIFDQNAMGWYRQAPGKERELVAAITWSGGSTNYADSVKGRFTISRDNAKNTVYLQMNSLKPEDTAVYYCATDGKPSFYSFDYWGQGTQVTVSS low polyreactivity

Look up and state reported polyreactivity (PSR sort gate) for QVQLVESGGGLVQAGGSLRLSCAASGRTFYSYAMGWYRQAPGKERELVAAISWNGGSTYYADSVKGRFTISRDNAKNTVYLQMNSLKPEDTAVYYCAAVPLRNRWPNSWPALDYWGQGTQVTVSS high polyreactivity

Look up and state reported polyreactivity (PSR sort gate) for QVQIVESGVGLVQAGGSLRLSCAASGTIFARYAMGWYRQAPGKERELVAAISWRGGRTYYADSVKGRFTISRDNAKNTVYLQMNSLKPEVTAVYYCAARRQQRGANGGDYWGQGTQVTLSS high polyreactivity

Look up and state reported polyreactivity (PSR sort gate) for QVQLVESGGGLVQAGGSLRLTCAASGRTFKGYAMGWYRQEPGKERELVAAISYRGGSTYYADSVKGRFTISRDNAKNTVYLQMNSLKPEDTAVYYCAAQGRSKYRGYYYWGQGTQVTVSS high polyreactivity

Look up and state reported polyreactivity (PSR sort gate) for QVQLVESGGGLVQAGGSLRLRCAASGSIFFHNAMGWYRQAPVKERELVATINRSDGTYYADSVKGRFTISRDNAKNTVYFQMNSLKPEDTAVYYCAVDHSFNDELDYWGQGTQVTVSS low polyreactivity

New cases:
Look up and state reported polyreactivity (PSR sort gate) for QVQLVESGGGLVQAGGSLRLSCAASGSIFVKNAMGWYIHAPGKERELVATISRRGGSTYYADSVKGRFTISRDIAKNTVYLQMNSMKPEDTAVYYCAADRSNRPYYRQGYDYWGQGTQVTVSS high polyreactivity

Look up and state reported polyreactivity (PSR sort gate) for QVQLVESVGGLVKAGVSLRLSCAASGYIFPYYAMGWYRQAPGKERELVAAISRSGGGTYYADSVKGRFTISRYNAKNTVYFQMKSLKPVVTAVYYFNRRSGQVDVYDYWGQGTKVTVSS low polyreactivity

Look up and state reported polyreactivity (PSR sort gate) for QVQLVESGGGLVQAGGSLRLSCAASGRIFLINAMGWYRQAPGKERELVAAITVSGTRTYYADSVKGRFTISRDNAKNNVYLQMNSLKPEDTAVYYCAAKLQYRWTCGYYYWGQGTQVTVSS high polyreactivity

Look up and state reported polyreactivity (PSR sort gate) for QVQLVESGGGLVQAGGSLRLSCAASGSTFRYYAMGWYRQAPGKERELVAAISYRGVRTNYADSVKGRFTISRDHAKNTVYLQMNSLKPEDTAVYYCADRFGRSSSGSPYDRYGYWGQGTQVTVSS high polyreactivity

Look up and state reported polyreactivity (PSR sort gate) for QVQLVESGGGLVLAGGSLRLSCAASGSIFPLYAMGWYRQAPGKERELVAAITGTSSTYADSVKGRFTISRDNAKNTVYLQMNSLKPEDTAVYYCARVGWSWPRREKYNYWGQGTQVTVSS high polyreactivity

Look up and state reported polyreactivity (PSR sort gate) for QVQLVESGGGLVQAGGRLRLSCAASGFTFSRNAMGWYRQAPGKERELVAAITASTSRTYYADSVKGRFTISRDNAKNTVYLQMTSLKQEDSAVYYCNAGRPGRGPYGYWGQGTQVTVSS high polyreactivity

====

assay: yeast display, Sf9 membrane polyspecificity reagent, FACS + sequencing; frameworks hold sequencing errors
readout_name: polyreactivity (PSR sort gate)

Recorded polyreactivity (PSR sort gate), per entry:
Look up and state reported polyreactivity (PSR sort gate) for QVQLVESGGGLVQAGGSLRLSCAASGRTFRWYAMGRYRQAPGKERELVAVISRGGGSTTYADSVKGRFTISRDNAKNTVYLQMNSLKPEDTAVYYCAAQWSGSVGSRPMYYWGQGSQVTVSS high polyreactivity

Look up and state reported polyreactivity (PSR sort gate) for QVKLEESGGGLVQAGGSLRLSCAASGSIFVVNAMGRYRPAPGKERELVDTITESGGSTYYADSVKGRFTISRDNAKNTVYLQMNSLKPEDTAVYYCAAYWHHKGDYWGQGTQVTVSS low polyreactivity

Look up and state reported polyreactivity (PSR sort gate) for QVQLVESCVVLVQAAGSLRLSFAHSGSTFKVYAMGTYRQATGKERELVASISSGGSTNYADSVKGRFTISRDNAKNTVYLQMNSLKPEDTAVYYCALRRYTHRRYRFDYWGQGTQVTVSS high polyreactivity

Look up and state reported polyreactivity (PSR sort gate) for QVQLVESGGGLFQAGGSLRLSCAASGSTFSPNGMGWYRQSPGKERELVAVISTTGGGTYYADSVKVRFTISRDNAKNTVYLQLNSLKPEDTAVYYCAADVWTYSWSWRKYVEFNYWGQGTQVTVSS high polyreactivity

Look up and state reported polyreactivity (PSR sort gate) for QVQLVESGGGLVQAGGSLRLSCAASGRTLSAYAMGWYRQAPGKERELVAALRWRGGSTVYAASVKGRFTISRDNAKNPVYLQMHSLKPADTAVYYCNALPGNRRTVYYWGQGTQVTVSS high polyreactivity

Look up and state reported polyreactivity (PSR sort gate) for QAQLQESGGSLVQAGGGLRLSCAAIGYISVGSVMGWYRQAPSKERELVASIDQGANTNYADSVKGRFTISRDNAKNNVYLQMNSLKPEDTAVYYCATETTYILNYWGQGTQVTVSS low polyreactivity

Look up and state reported polyreactivity (PSR sort gate) for QVQLVESGGGLFQAGGSLRLSCSASGNTFVPYDMGWYRQAPGKERELVAGITSGGSTYYADSVKGRFTISRDNAKNTVYLQMNSLKPEDTAVYYCAADYYLWVYWYDYWGEGTQVTVSS high polyreactivity

Look up and state reported polyreactivity (PSR sort gate) for QVQLVESGGGLVQAGGSLRLSCAASGFIFVWNAMGWYRQAPGKERELVANIRDGGITYADSVKGRFTITRDNAKNTVYLQMNSLKPEDTAVYYCARTNFYRSYEPGGRFYNYDYWGQGTQVTVSS low polyreactivity

Look up and state reported polyreactivity (PSR sort gate) for QVQLVESGGGLVQAGGSLRLSCAASGRTFRYYAMGWYRQAPGKERELVAAITVRTGSTSYADSVKGRFTISRDNAKNTVYLQMNSLKPEDTAVYYCAATSRYFQPPGYGGGRIGYGYWGQGTQVTVSS high polyreactivity

Look up and state reported polyreactivity (PSR sort gate) for QVQLVESGGGLVQAGGSLRLSCAASGYIFGWYDMGWYRQAPGKERELVAAIDSGGNTYYADSVKGPFTISRDNAKNTVYLQMNSLKPEDTAVYYCNADYWGWSGPPYEYWGQGTQVTVSS high polyreactivity

Shift focus to the following entry.
Look up and state reported polyreactivity (PSR sort gate) for QVQLVESGGGLVLAGGSLRLSCAASGSIFGPYAMGWYRQAPGKERELVAAIRSGGSTNYADSVKGRFTISRDNAKNTVYLQMNSLKPEDNAVYYCAAEYWGYPYDYWGQGTQVTVSS low polyreactivity

====

experiment: yeast display, Sf9 membrane polyspecificity reagent, FACS + sequencing; frameworks hold sequencing errors
readout_name: polyreactivity (PSR sort gate)

Look up and state reported polyreactivity (PSR sort gate) for QVQLVESGGGLVQAGGSLRLSCAASGSIFEPNAKGWYRQAPGKERELVAVINYSGGSTYYADSVKGRFTISRDNAKNTVYLQMNSLKPEDTAVYYCAASHYHYRYGTPQPEYNYWGQGTQVTVSS low polyreactivity

Look up and state reported polyreactivity (PSR sort gate) for QVQLVESGGGLVQAGGSLRLSCAASGRTFGWYAMGWYRQAPGKERELVAAITSGTSTYYADSVKGRFTISRDNAKNTVYLQMYSLKPEDTAVYYCAVDRGISVGYTRFDYWGQGTEVTVSS low polyreactivity

Look up and state reported polyreactivity (PSR sort gate) for QVQLVESGGGLVQAGGSLRLSCAASGRTFYLYAMGWYRQAPGKERELVDTITESVGNTYYADSVKGRFTISRDNAKNTVYLQMNSLKPEDTAVYYCAATYKYYLYQPKTLFREGDYWGQGTQVTVSS low polyreactivity

Look up and state reported polyreactivity (PSR sort gate) for QVQLVESGGGLVQAGGSLRLSCAASGSIFEENAMGWYRQAPGKERELVAAITIGGRTNYADSVYGRFTISRDNAKNTVYLQMNSLKPEDTAVYYCAADLSSNKYWRFWTRYYYWGQGTQVTVSS low polyreactivity

Look up and state reported polyreactivity (PSR sort gate) for QVQLVESGGGLVQAGGSLRLSCAASGSTFGNNTMGWYRQAPGKEREFVAAITESGGGTYADSVKGRFTISRDNAKNTVYLQMNSLKPEDTAVYYCAAVWYIWPFAFYYWGQGTQVTVSS high polyreactivity

New cases:
Look up and state reported polyreactivity (PSR sort gate) for QVQLVESGGGLVQAGGSHRLSCAASGFIFYYYTRGWYRQAPGKERELVAAISRGRGSTYYADSVKGRFTISRDNAKNTVYLQMNSLKPEDTAVYYCARTDRRLGAHQGDYWGQGTQVTVSS high polyreactivity

Look up and state reported polyreactivity (PSR sort gate) for QVHLVESGGGLVQAGGRLRLSCAASGRTFFWYAMGWYRQAPGKEREFVAAITWRTGSTYYADSVKGRFTLSRDNAKNTVYLQMNSLKPEDTAVYYCAGEFPWSFATYYSWGQGTQVTVSS high polyreactivity

Look up and state reported polyreactivity (PSR sort gate) for QVQLVESGGGLVQAGGSLRLSCAASGRTFRYNAMGWYRQAPGKERELVASISWRGGSTYYADSVKGRFTISRDNAKNTVYLPMNSLKPEDTAVYYCAADAAHSEYDDWGQGTQVTVSS high polyreactivity

Look up and state reported polyreactivity (PSR sort gate) for QVQLVESGGGLVQAGRSLRLSCAASGLTFRVYPMGWYRQAPGKDRELVAAITGGGGSTYADSVKGRFTISRDNAKNTVYLQMYSLKPEDTAVSYCNKKGYYYKFDYWGQGTQVTVSS low polyreactivity

Look up and state reported polyreactivity (PSR sort gate) for QVQLVESGGGLVQAGGSLRLSCAASGFTFYDNAMGWYRQAPGKERELVAAITSNGVNTHYADSVKGRFTISRDNAKNTVYLQMNSLKPEDTAVYYCAADRDPEVTYQKYEYWGQGTQVTVSS low polyreactivity

Look up and state reported polyreactivity (PSR sort gate) for QVQLVESGGGLVQAGGSLRLSCAASGRTFYYNAMGWYRQAPGKERELVAAISASSGRTYYADSVKGRFTISRDNAKNTVYFPMNSLKPEDTAVYYCANRYGGDYTRGYGYWGQGTQVTVSS high polyreactivity

Look up and state reported polyreactivity (PSR sort gate) for QVQLVESGGGLVQAGGSLRLSCAASGFTFPFYAMGWYRQAPGKERELVAPISRSGTRTYYADSVKGRFTISRDNAKNTVYLQMNSLKPEDTAVYYCAAAYHNGYLSEGYWEHYYWGQGTQVTVSS high polyreactivity

Look up and state reported polyreactivity (PSR sort gate) for QVQLVESGGGLVQAGGTLRLSCAPYGIILYRIGMGWYRQAPGKERELVAAISWSTGSTYYADSEKGRFTISRDNAKNTVYLQMNSLKPEDTAVYYCATDYGGYSFGMYYWGQGTQVTVSS low polyreactivity

Look up and state reported polyreactivity (PSR sort gate) for QVQLVESGGGLVQAGGSLRLSCAASGSIFPRYAMGWYRQAPGKERELVAAITNGGSTDYADSVKGRFTISRDNAKKTVYLLMNSLKPEDTAGYYCAADLAVGIYPEDGDYWGQGTKVTVSS low polyreactivity

Look up and state reported polyreactivity (PSR sort gate) for QVQLLESGGGLVQAGGSLRLSCASSGSIFHTYAMGWYRPAPGKERELVAAISSGGRTYYADSVKGRFTISRDNAKNTVYLQMNSLKPEDTAVYYCAVRPRPGYYYWGQGTQVTVSS high polyreactivity

Look up and state reported polyreactivity (PSR sort gate) for QVQLVESGGGLVQAGGSLRLSCSASGRILYSYSMGWYRQAPGKEREFVAAIRRSGGSTYYADSVKGRFTISRDNAKNTVYLQMNSLKPEDTAVYYCAAGRRYSGSYDYWGQGTQVTVSS high polyreactivity

Look up and state reported polyreactivity (PSR sort gate) for QVQLVESGGGLVQAGGSVRLSCAASGISFQYNALGWYRQAPGTERELVAGITWSGTSTYFADSVKGRFTISRDNAKNTVYLQLNSMKPEDTAVYYCAAVRGYRGYDYWGQGTQGTVSS high polyreactivity

Look up and state reported polyreactivity (PSR sort gate) for QVQLVESGGGLVQAGGSLRLSCAASGSIFLVYAMGWYRQAPGKERELVAAIRISDSTNYADSVKGRFTISRDNAKNTVYLQMNSLKPEDTAVYYCNVDTVGLGGEKGGYYWGQGTQVTVSS low polyreactivity

Look up and state reported polyreactivity (PSR sort gate) for QVQLVESGGGLVQAGGSLRLSCAASGSNIATYAMGWYRQAPWKETELVAAISSTGRTYYADSVKGRFTISRDNAKNTVYLQMTRLKPVDTAVYYCNTVRYRSRYGMDYWGQGTQVTVSS high polyreactivity

Look up and state reported polyreactivity (PSR sort gate) for QVQLVESGGGLVQAGGSLRLSCAASGRIFGQNAMGWYRQAPGKERELVAAITGSGGRTYYADSVKGRFTISRDNAKNTVYLQMNSQKPEDTAVYYCAVRVTSYYRTMDYWGQGTQVTVSS low polyreactivity

Look up and state reported polyreactivity (PSR sort gate) for QVKLVEAGGGLVQAGGSLRFSCAASGNIFQGNARGWYREAPGKERELVAAITYSGAGTYYADSVKGRFTISRDNAKNSVYLQMNSLNPEDTAVYYSAADWYTFEYDYWGQGTQVTVSS low polyreactivity
